test-protocol: Cmax in Sprague-Dawley rat at 1 mg/kg, iv
Type: ADME, organism-based
condition-info: in vivo
attribute-measured: Cmax (ng/mL)
Answers are plain numbers, in ng/mL.

Note to self: Cmax recorded for `COc1ccc(-c2cc(=O)c3ccc(NS(=O)(=O)c4ccc(F)cc4)cc3o2)cc1` was 1050

---

test-protocol: Cmax in Sprague-Dawley rat at 10 mg/kg, po
Assay type: ADME, organism-based
condition-info: in vivo
attribute-measured: Cmax (ng/mL)
Answers are plain numbers, in ng/mL.

The molecule identified as `COc1ccc(-c2cc(=O)c3ccc(NS(=O)(=O)c4ccc(F)cc4)cc3o2)cc1` registered its Cmax at 1300

---

test-protocol: AUC (0 to t) last in Sprague-Dawley rat at 10 mg/kg, po
Type: ADME, organism-based
condition-info: in vivo
attribute-measured: AUC(0-t) (ng·h/mL)
Answers are plain numbers, in ng·h/mL.

`COc1ccc(-c2cc(=O)c3ccc(NS(=O)(=O)c4ccc(F)cc4)cc3o2)cc1` yielded AUC(0-t) of 7690

---

test-protocol: Elimination half life in Sprague-Dawley rat at 1 mg/kg, iv
Format: ADME, organism-based
condition-info: in vivo, read-out: beta t1/2 (converted)
attribute-measured: half-life (h)
One number for each entry, in h.

Lookup result for `COc1ccc(-c2cc(=O)c3ccc(NS(=O)(=O)c4ccc(F)cc4)cc3o2)cc1` ; measured half-life: 5.45
